assay: qHTS assay to identify small molecule agonists of the sonic hedgehog signaling (Shh) pathway - cell viability counter screen (AID 1259366); conditions: NIH/3T3 Gli1-Luc viability, CellTiter-Fluor, 24 h; series mostly up to 92.4 µM; further: on the % scale 0 is the no-effect control and ±100 the full control effect; nearly all actives have a fitted effect of over 50% in size
Results filed as inconclusive are left out. The source made the active and inactive calls. The call rests on the fitted dose curve; in most records, active means well fitted cell-killing curve with a large enough effect in the repeat runs; inconclusive means weak or mixed curves, or effect the other way; inactive means flat fitted curve, though single readings scatter.
MEASURED ENDPOINT: viability change, negative = cytotoxic

Examples with their reported viability change, negative = cytotoxic follow.
>  <MOLECULE>
NCCCNCCSP(=O)(O)O

>  <viability change, negative = cytotoxic>
-2.35% [at 8.39 µM] (inactive)

$$$$
>  <MOLECULE>
C1OCOCO1

>  <viability change, negative = cytotoxic>
inactive

$$$$
>  <MOLECULE>
COC(=O)[C@@H](N)Cc1ccc(O)c(O)c1

>  <viability change, negative = cytotoxic>
inactive

$$$$
>  <MOLECULE>
CC(NC(CCc1ccccc1)C(=O)O)C(=O)N1C(=O)N(C)CC1C(=O)O (stereo not drawn)

>  <viability change, negative = cytotoxic>
inactive

$$$$
>  <MOLECULE>
NC(=O)Nc1ccccc1

>  <viability change, negative = cytotoxic>
inactive

$$$$
>  <MOLECULE>
NS(=O)(=O)c1cc2c(cc1Cl)NC(C1CC3C=CC1C3)NS2(=O)=O (stereo not drawn)

>  <viability change, negative = cytotoxic>
inactive

$$$$
>  <MOLECULE>
O=S(O)CO

>  <viability change, negative = cytotoxic>
inactive

$$$$
>  <MOLECULE>
CCOC(=O)c1c(C)n(C)c2ccc(O)cc12

>  <viability change, negative = cytotoxic>
inactive

$$$$
>  <MOLECULE>
CCn1nc(C(=O)O)c(=O)c2cc3c(cc21)OCO3

>  <viability change, negative = cytotoxic>
inactive

$$$$
>  <MOLECULE>
O=c1cc(-c2ccccc2)oc2ccccc12

>  <viability change, negative = cytotoxic>
inactive

$$$$

Request: // fetch viability change, negative = cytotoxic given entry C[C@@H]1CCN(C(=O)[C@H](CCCN=C(N)N)NS(=O)(=O)c2cccc3c2NC[C@H](C)C3)[C@@H](C(=O)O)C1
Result: inactive

Request: // fetch viability change, negative = cytotoxic given entry O=C(O)CN(CCOCCOCCN(CC(=O)O)CC(=O)O)CC(=O)O
Result: -0.116% [at 0.349 µM] (inactive)

Request: // fetch viability change, negative = cytotoxic given entry CCOC(=O)c1cccc(N)c1
Result: inactive

----------
assay: qHTS assay for small molecules that induce genotoxicity in human embryonic kidney cells expressing luciferase-tagged ATAD5 - cell viability (AID 651634); details: HEK293T ATAD5-luc cells viability, CellTiter-Fluor, 15.5 h; series mostly up to 83.3 µM; further: on the % scale 0 is the no-effect control and ±100 the full control effect; nearly all actives have a fitted effect of over 25% in size
Records with an inconclusive call do not appear. The source made the active and inactive calls. Calls follow the shape of the full dose curve.
MEASURED ENDPOINT: activity, negative = cytotoxicity

Examples with their reported activity, negative = cytotoxicity follow.
>  <COMPOUND>
CC(=O)OCC(CCn1cnc2cnc(N)nc21)COC(C)=O

>  <activity, negative = cytotoxicity>
inactive

$$$$
>  <COMPOUND>
O=c1cc(CO)occ1O

>  <activity, negative = cytotoxicity>
inactive

$$$$
>  <COMPOUND>
O=C(O)CCCc1ccccc1

>  <activity, negative = cytotoxicity>
inactive

$$$$
>  <COMPOUND>
CC(=O)N(CC(O)CO)c1c(I)c(C(=O)NCCO)c(I)c(C(=O)NCC(O)CO)c1I (centres undefined)

>  <activity, negative = cytotoxicity>
inactive

$$$$
>  <COMPOUND>
CC(=O)c1ccccc1O

>  <activity, negative = cytotoxicity>
inactive

$$$$
>  <COMPOUND>
C=C[Si](OC(=C)C)(OC(=C)C)OC(=C)C

>  <activity, negative = cytotoxicity>
inactive

$$$$
>  <COMPOUND>
O=C(O)c1ccccc1OP(=O)(O)O

>  <activity, negative = cytotoxicity>
inactive

$$$$
>  <COMPOUND>
CN1CC(=O)NC1=N

>  <activity, negative = cytotoxicity>
inactive

$$$$

Request: // fetch activity, negative = cytotoxicity given entry NS(=O)(=O)c1cc2c(cc1Cl)NC(C1CC3C=CC1C3)NS2(=O)=O (centres undefined)
Result: inactive

Request: // fetch activity, negative = cytotoxicity given entry C[C@H](NC(CCc1ccccc1)C(=O)O)C(=O)N1CCC[C@H]1C(=O)O (some centres undefined)
Result: inactive

Request: // fetch activity, negative = cytotoxicity given entry N[C@H](C(=O)O)c1ccc(O)cc1
Result: inactive

Request: // fetch activity, negative = cytotoxicity given entry Cn1c(N)c(N=O)c(=O)n(C)c1=O
Result: inactive

Request: // fetch activity, negative = cytotoxicity given entry CC1(C)CO[C@@H](CC(=O)O)CN1
Result: inactive
